# subject_of_test: T1, His-tagged μ2C (μ2 170–435), wild type (rat, UniProt P84092 170-435)
# T1 sequence (looked up): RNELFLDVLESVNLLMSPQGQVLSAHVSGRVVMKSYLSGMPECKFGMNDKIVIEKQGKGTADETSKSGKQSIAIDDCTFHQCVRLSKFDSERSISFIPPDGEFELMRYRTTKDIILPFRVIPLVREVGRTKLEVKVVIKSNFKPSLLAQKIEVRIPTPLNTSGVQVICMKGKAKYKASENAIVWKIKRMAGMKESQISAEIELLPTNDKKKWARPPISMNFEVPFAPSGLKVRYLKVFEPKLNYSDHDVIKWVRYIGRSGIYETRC
# method: pull-down

{"columns": ["binder", "binding result"],
 "data": [
  ["GST-Dvl2 417–588, wild type (domain or fragment, murine, UniProt Q60838 417-588, looked up) LSVHMDMASVTKAMAAPESGLEVRDRMWLKITIPNAFLGSDVVDWLYHHVEGFPERREARKYASGLLKAGLIRHTVNKITFSEQCYYVFGDLSGGCESYLVNLSLNDNDGSSGASDQDTLAPLPGATPWPLLPTFSYQYPAPHPYSPQPPPYHELSSYTYGGGSASSQHSEG", "binds"]
]}
